# MEASUREMENT NOTES: activity coefficient (dimensionless); of the first substance listed, at infinite dilution; xn = mol fraction of the nth substance listed
# TEST CONDITIONS: 318.15 K; Liquid; Chromatography; x1 = 0

MOLECULE: CCC(C)(C)OC [2-methoxy-2-methylbutane] + CCCCCCn1cc[n+](C)c1.N#C[B-](C#N)(C#N)C#N
activity coefficient: 2.19
--
MOLECULE: C1CCCC1 [cyclopentane] + CCCCCCn1cc[n+](C)c1.N#C[B-](C#N)(C#N)C#N
activity coefficient: 4.65
--
MOLECULE: C1CCCCCC1 [cycloheptane] + CCCCCCn1cc[n+](C)c1.N#C[B-](C#N)(C#N)C#N
activity coefficient: 7.96
--
MOLECULE: C=CCCCCC [1-heptene] + CCCCCCn1cc[n+](C)c1.N#C[B-](C#N)(C#N)C#N
activity coefficient: 8.39
--
MOLECULE: C1CCOC1 [tetrahydrofuran] + CCCCCCn1cc[n+](C)c1.N#C[B-](C#N)(C#N)C#N
activity coefficient: 0.453
--
MOLECULE: CCCCO [butan-1-ol] + CCCCCCn1cc[n+](C)c1.N#C[B-](C#N)(C#N)C#N
activity coefficient: 1.43
--
MOLECULE: CCCCCC [hexane] + CCCCCCn1cc[n+](C)c1.N#C[B-](C#N)(C#N)C#N
activity coefficient: 11.8
--
MOLECULE: CC(C)CO [2-methyl-1-propanol] + CCCCCCn1cc[n+](C)c1.N#C[B-](C#N)(C#N)C#N
activity coefficient: 1.44
--
MOLECULE: CO [methanol] + CCCCCCn1cc[n+](C)c1.N#C[B-](C#N)(C#N)C#N
activity coefficient: 0.837
--
MOLECULE: CCC(=O)OC [methyl propanoate] + CCCCCCn1cc[n+](C)c1.N#C[B-](C#N)(C#N)C#N
activity coefficient: 0.609
--
MOLECULE: CC(C)O [propan-2-ol] + CCCCCCn1cc[n+](C)c1.N#C[B-](C#N)(C#N)C#N
activity coefficient: 1.2

====

# MEASUREMENT NOTES: activity coefficient (dimensionless); of the first substance listed, at infinite dilution; xn = mol fraction of the nth substance listed
# TEST CONDITIONS: 358.15 K; Liquid; Chromatography; x1 = 0
Returns one of t or f; t when activity coefficient is >= 1.

COMPOUND: CCCC=O [butanal] + CCCCCCn1cc[n+](C)c1.N#C[B-](C#N)(C#N)C#N
DISCRETE LABEL: f
--
COMPOUND: CCCCCCCC [octane] + CCCCCCn1cc[n+](C)c1.N#C[B-](C#N)(C#N)C#N
DISCRETE LABEL: t
--
COMPOUND: C1=CCCCC1 [cyclohexene] + CCCCCCn1cc[n+](C)c1.N#C[B-](C#N)(C#N)C#N
DISCRETE LABEL: t
--
COMPOUND: C=Cc1ccccc1 [styrene] + CCCCCCn1cc[n+](C)c1.N#C[B-](C#N)(C#N)C#N
DISCRETE LABEL: f
--
COMPOUND: CCOCC [diethyl ether] + CCCCCCn1cc[n+](C)c1.N#C[B-](C#N)(C#N)C#N
DISCRETE LABEL: t
--
COMPOUND: CC#N [acetonitrile] + CCCCCCn1cc[n+](C)c1.N#C[B-](C#N)(C#N)C#N
DISCRETE LABEL: f
--
COMPOUND: CCOC(C)=O [ethyl acetate] + CCCCCCn1cc[n+](C)c1.N#C[B-](C#N)(C#N)C#N
DISCRETE LABEL: f
--
COMPOUND: CCC(=O)CC [pentan-3-one] + CCCCCCn1cc[n+](C)c1.N#C[B-](C#N)(C#N)C#N
DISCRETE LABEL: f
--
COMPOUND: c1ccccc1 [benzene] + CCCCCCn1cc[n+](C)c1.N#C[B-](C#N)(C#N)C#N
DISCRETE LABEL: f
--
COMPOUND: CC(C)OC(C)C [diisopropyl ether] + CCCCCCn1cc[n+](C)c1.N#C[B-](C#N)(C#N)C#N
DISCRETE LABEL: t
--
COMPOUND: C#CCCCCCC [1-octyne] + CCCCCCn1cc[n+](C)c1.N#C[B-](C#N)(C#N)C#N
DISCRETE LABEL: t
--
COMPOUND: Cc1cccc(C)c1 [1,3-dimethylbenzene] + CCCCCCn1cc[n+](C)c1.N#C[B-](C#N)(C#N)C#N
DISCRETE LABEL: t
--
COMPOUND: Cc1ccc(C)cc1 [1,4-dimethylbenzene] + CCCCCCn1cc[n+](C)c1.N#C[B-](C#N)(C#N)C#N
DISCRETE LABEL: t
--
COMPOUND: CCC(=O)OC [methyl propanoate] + CCCCCCn1cc[n+](C)c1.N#C[B-](C#N)(C#N)C#N
DISCRETE LABEL: f
--
COMPOUND: CCCC(=O)OC [methyl butanoate] + CCCCCCn1cc[n+](C)c1.N#C[B-](C#N)(C#N)C#N
DISCRETE LABEL: f
--
COMPOUND: CCc1ccccc1 [ethylbenzene] + CCCCCCn1cc[n+](C)c1.N#C[B-](C#N)(C#N)C#N
DISCRETE LABEL: t
--
COMPOUND: C1CCCCCCC1 [cyclooctane] + CCCCCCn1cc[n+](C)c1.N#C[B-](C#N)(C#N)C#N
DISCRETE LABEL: t
--
COMPOUND: CCOC(C)(C)C [2-ethoxy-2-methylpropane] + CCCCCCn1cc[n+](C)c1.N#C[B-](C#N)(C#N)C#N
DISCRETE LABEL: t
--
COMPOUND: CCCO [propan-1-ol] + CCCCCCn1cc[n+](C)c1.N#C[B-](C#N)(C#N)C#N
DISCRETE LABEL: f
--
COMPOUND: CCCCCCCCC [nonane] + CCCCCCn1cc[n+](C)c1.N#C[B-](C#N)(C#N)C#N
DISCRETE LABEL: t
--
COMPOUND: C1COCCO1 [1,4-dioxane] + CCCCCCn1cc[n+](C)c1.N#C[B-](C#N)(C#N)C#N
DISCRETE LABEL: f
--
COMPOUND: CCO [ethanol] + CCCCCCn1cc[n+](C)c1.N#C[B-](C#N)(C#N)C#N
DISCRETE LABEL: f
